Molecular target: T1, HLA-DR2b molecules purified from L cells co-transfected with HLA-DRA and HLA-DRB1*1501 (human)
T1 construct: also called purified DR2b molecules
Assay: competitive ELISA (DELFIA) on purified HLA-DR2b, displacement of biotinylated CLIP 97-120
PROPERTY: IC50 (µM)

1: Ac-LILWYSSWL-NH2 (acetylated nonapeptide amide) [HuPb24]
2: Ac-LILWYSSWP-NH2 (acetylated nonapeptide amide) [HuPb26]
3: Ac-GPLPEHELL-NH2 (acetylated nonapeptide amide) [HuPb15]
// query Arrange these binders by their IC50, starting with the largest number. The response must list the labels following the requested ordering.
// result 3, 1, 2
